Test system: HOP-62 NSCLC
Assay: NCI tumour cell line growth inhibition, 48 h
METRIC: TGI

Some solved entries appear below for comparison.
# MOLECULE, TGI
records = [
    ("C/C(=N\\NS(=O)(=O)c1ccc(C)cc1)c1ccc[n+]([O-])n1", "> 100 µM"),
    ("COC(=O)c1cc(Nc2ccc(O)c3c2C(=O)c2c([N+](=O)[O-])ccc(O)c2C3=O)cc(C(=O)OC)c1", "> 100 µM"),
    ("COC(=O)/C(=N\\NC(=O)c1ccccc1O)C(C#N)c1ccc(Cl)cc1 (stereo not given)", "95.8 µM"),
]

Batch: TGI for all items listed.
1. O=C1c2cc3c(cc2CC12Cc1cc4c(cc1C2)CCC4)CCC3
2. C=C(CCOC)CCC1CCCCC(=C)C1=O (stereo not given)

Resp:
["> 100 µM", "> 100 µM"]

* * *

Tested on: SR leukemia
Test: NCI tumour cell line growth inhibition, 48 h
METRIC: TGI

Some solved entries appear below for comparison.
# MOLECULE, TGI
rows = [
    ("CC(=O)O[C@]12CCCCCCC1C1(O)C(O)CCC[C@H]12 (stereo partly specified)", "> 100 µM"),
    ("c1ccc(SCCCC(Sc2ccccc2)Sc2ccccc2)cc1", "> 100 µM"),
    ("O=C(N[C@@H]1CCCc2ccccc21)[C@H](CCC(=O)N1CCN(C2CCCCC2)CC1)N1C(=O)[C@@H](N2C(=O)OC[C@@H]2c2ccccc2)[C@H]1/C=C/c1ccccc1", "> 100 µM"),
    ("CC1=NN(c2ccc(C)cc2)C2(C1)SCC(=O)N2c1nc2ccccc2s1 (stereo unspecified)", "28.1 µM"),
    ("COc1cc(C2C3=C(COC3=O)N(CCO)c3cc4c(cc32)CCC4)cc(OC)c1O (stereo unspecified)", "> 32.5 µM"),
]

Batch: TGI for all items listed.
1. COc1cc(C(=O)Nc2nnc(S(N)(=O)=O)s2)cc(OC)c1OC
2. C/C(=N\NS(=O)(=O)c1ccc(C)cc1)c1ccc[n+]([O-])n1
3. O=C1CCSSCCC(=O)Nc2ccccc2N1
4. Cc1nc2c(n1Cc1ccc(Cl)cc1)C(=O)c1ccccc1C2=O
5. NC1=NS(=O)(=O)N=C(N)C1=Cc1ccc([N+](=O)[O-])o1

Resp:
["> 100 µM", "> 100 µM", "> 100 µM", "> 75 µM", "29.2 µM"]

Batch: TGI for all items listed.
1. O=C(Oc1c(I)ccccc1=O)c1ccc([N+](=O)[O-])cc1
2. COc1ccc(N2C(=O)C3c4[nH]c5ccc(C)cc5c4C4CCC(C(C)C)CC4C3C2=O)cc1 (stereo unspecified)

Resp:
24.2 µM
> 100 µM

Batch: TGI for all items listed.
1. CC(CS(=O)(=O)Cc1ccccc1)C(N)=O (stereo unspecified)
2. CN(C)c1ccc(C(=NNC(=O)c2cc3ccccc3[nH]2)c2ccc(N(C)C)cc2)cc1
3. CC1=CC2=C(C)C3(CC3)[C@@](C)(O)C(=O)C2=C1

Resp:
["> 100 µM", "> 100 µM", "> 1 µM"]

* * *

Provide the recorded TGI for the entries that follow.
Test system: OVCAR-8 ovarian
Experiment: NCI tumour cell line growth inhibition, 48 h

Some solved entries appear below for comparison.
# COMPOUND, SYSTEM TESTED, METRIC, VALUE MEASURED
data = [
    ("COc1ccc2c(c1O)[C@@]13C=C(O)C(=O)C=C1[C@@H](C2)N(C)CC3", "OVCAR-8 ovarian", "TGI", "> 100 µM"),
    ("O=C1NC(=O)/C(=C\\c2ccncc2)N1", "OVCAR-8 ovarian", "TGI", "> 100 µM"),
    ("O=C(c1cccs1)N(C(=S)N1CCN(c2ccccc2)CC1)c1ccccc1", "OVCAR-8 ovarian", "TGI", "> 100 µM"),
    ("COc1c(O)c(OC)c(C(=O)/C=C/c2ccccc2)c(O)c1OC", "OVCAR-8 ovarian", "TGI", "38.1 µM"),
    ("N#Cc1c2c(c(N=[N+]=[N-])n3c1nc1ccccc13)CCCC2", "OVCAR-8 ovarian", "TGI", "3.09 µM"),
    ("O=c1oc2ccccc2cc1-c1nc2ccc([N+](=O)[O-])cc2o1", "OVCAR-8 ovarian", "TGI", "> 100 µM"),
    ("COc1cc(C2C3=C(COC3=O)N(CCO)c3cc4c(cc32)CCC4)cc(OC)c1O (stereo not given)", "OVCAR-8 ovarian", "TGI", "> 32.5 µM"),
    ("COc1cc(OC)c(CSCC(NC(=O)OCC2c3ccccc3-c3ccccc32)C(=O)O)c(OC)c1 (stereo not given)", "OVCAR-8 ovarian", "TGI", "> 10 µM"),
]

Batch: TGI for all items listed.
1. Cc1nn(-c2ccccc2)c2c1C1C(=C(c3ccc(Cl)cc3)N2)C(=O)Nc2ccccc21 (stereo not given)
2. CCCC/C(=N\N=C(N)N)c1ccc(F)cc1
3. O=C(O)c1cc(Cl)cc(NC(=O)C(Cl)Cl)c1Cl
4. c1ccc2c(c1)CCCc1cc3ccccc3nc1-2

Resp:
1. 67 µM
2. 15.2 µM
3. > 100 µM
4. > 100 µM
